Numbers sourced from paper PMC11249646.

Target: CIB1 and αIIb interaction (CIB1-GST : F-αIIb peptide) (Homo sapiens)
Construct: made in house; host or cells: BL-21 plus RIL cells (E. coli)
Sequence (Q99828 1-191): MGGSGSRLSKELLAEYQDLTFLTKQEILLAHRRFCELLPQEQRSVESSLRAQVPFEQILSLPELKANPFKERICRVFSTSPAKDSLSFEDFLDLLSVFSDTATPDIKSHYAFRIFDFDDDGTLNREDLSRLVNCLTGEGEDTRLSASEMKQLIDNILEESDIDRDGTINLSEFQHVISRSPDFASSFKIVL
Experiment: FP assay, 1536-well qHTS format (primary and confirmatory screen)
Type: binding
Settings: qHTS FP screen hits, Table S2; one class per curve where COUNT > 1; negative sign = inhibitory curve
Overview of recorded Curve Class for various compounds
Readout Type: Curve Class

Compound	Readout Type	Recorded Number
CC(C)=CCC[C@]1(C)C=Cc2c(O)c3c(c(CC=C(C)C)c2O1)O[C@]12C(=C[C@@H]4CC1C(C)(C)O[C@@]2(C/C=C(/C)C(=O)O)C4=O)C3=O	Curve Class	-1.2
Brc1c(Br)c(Br)c2[nH]nnc2c1Br [NCGC00092352-04, 4,5,6,7-tetrabromobenzotriazole, reference compound]	Curve Class	-1.2
O=C(O)C(F)(F)F.O=C1Nc2ccccc2/C1=N/NC(=S)Nc1ccc(O)cc1	Curve Class	-1.2
O=c1sc2ccccc2c(O)c1C1CC(c2ccc(-c3ccc(Br)cc3)cc2)Cc2ccccc21 (centres unmarked)	Curve Class	-1.2
Cc1cc(=O)oc2cc(SC3=NS(=O)(=O)c4ccccc43)ccc12	Curve Class	-2.2

###

We begin with a simple list: items and their reported Efficacy (%).
Target: CIB1 and αIIb interaction (CIB1-GST : F-αIIb peptide) (Homo sapiens, UniProt Q99828)
Construct: made in house; host or cells: BL-21 plus RIL cells (E. coli)
Experiment: FP assay, 1536-well qHTS format (primary and confirmatory screen)
Type: binding
Conditions: qHTS FP screen hits, Table S2; negative = inhibition
Readout Type: Efficacy (%)

Molecule	Display Unit	Recorded Number
COc1ccc(S(=O)(=O)Nc2cnccc2C(=O)Nc2nc(-c3ccccc3)cs2)cc1.O=C(O)C(F)(F)F	%	-52
COc1ccc2nc3[nH]nc(C)c3c(NCCOCCO)c2c1	%	-75
O=C(O)c1cc(/N=N/c2ccc(S(=O)(=O)Nc3ccccn3)cc2)ccc1O	%	-43
CN1CCCN(C(=O)c2cccc(-c3ccc(/C=C4/C(=O)Nc5ccc(Cl)cc54)o3)c2)CC1	%	-37
N#Cc1ccc(N2N=C3c4ccc(C(=O)O)cc4CC[C@@H]3[C@@H]2C2CCCC2)cc1Cl	%	-32
CC1=C(O)C(=O)C=C2C1=CC=C1[C@@]2(C)CC[C@@]2(C)[C@@H]3C[C@](C)(C(=O)O)CC[C@]3(C)CC[C@]12C	%	-84
NC(=O)C1CCN(c2ncc(Br)s2)CC1	%	-123
CC(=O)c1c(O)cc2c(c1C)C(=O)CC(O)C2 (stereo not drawn)	%	-53
CC(=O)O.Cc1cc2c(C(C)C)c(O)c(O)c(C=O)c2c(O)c1-c1c(C)cc2c(C(C)C)c(O)c(O)c(C=O)c2c1O	%	-64
Nc1nc2c(s1)C(c1ccc(F)cc1F)CC(=O)N2 (stereo not drawn)	%	-54
COC(=O)[C@]12CCC(C)(C)C[C@H]1[C@H]1C(=O)C=C3[C@@]4(C)C=C(C#N)C(=O)C(C)(C)[C@@H]4CC[C@@]3(C)[C@]1(C)CC2	%	-24
O=C(O)C(F)(F)F.O=C1CCCC2=C1C1(CCOCC1)N=C(Nc1nc3ccccc3o1)N2	%	-26
O=C(O)Cc1ccc(CCNS(=O)(=O)c2ccc(Cl)cc2)cc1	%	-61
C=C1C(=O)OC2C(OC(=O)C=C(C)C)C(C)=C3C(=O)C=C(C)C3C(O)C12 (stereo not drawn)	%	-32
CC[C@@H](CO)NC(=O)[C@@H]1C=C2c3cccc4c3c(cn4C)C[C@H]2N(C)C1	%	-89
